B1: glmS ribozyme (parent)
chain: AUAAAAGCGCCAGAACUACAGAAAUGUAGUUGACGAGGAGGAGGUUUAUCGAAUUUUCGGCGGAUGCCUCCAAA

Variants of: B1
assay: self-cleavage kobs at 160 uM GlcN6P; higher = faster cleavage; RNA array
stated-conditions: with glucosamine-6-phosphate
Variants at the floor of the assay were thinned out.
result-type: self-cleavage kobs at 160 uM GlcN6P

> print(dat)
                    mutant.code                          result.type  experimental.value
 1                 A6U C8A C16A  self-cleavage kobs at 160 uM GlcN6P         < 1e-05 s⁻¹
 2                    G13U U55G  self-cleavage kobs at 160 uM GlcN6P        6.37e-05 s⁻¹
 3  C8A G9U C19A G29C C34A A48C  self-cleavage kobs at 160 uM GlcN6P         < 1e-05 s⁻¹
 4                     C8U A64U  self-cleavage kobs at 160 uM GlcN6P         < 1e-05 s⁻¹
 5                    G44A C71A  self-cleavage kobs at 160 uM GlcN6P         < 1e-05 s⁻¹
 6                     C8G C71U  self-cleavage kobs at 160 uM GlcN6P         < 1e-05 s⁻¹
 7                    C10U G38C  self-cleavage kobs at 160 uM GlcN6P         < 1e-05 s⁻¹
 8                     A6C U56C  self-cleavage kobs at 160 uM GlcN6P         < 1e-05 s⁻¹
 9                    U49C C50G  self-cleavage kobs at 160 uM GlcN6P         < 1e-05 s⁻¹
10          G13U C34A G40U C58A  self-cleavage kobs at 160 uM GlcN6P         < 1e-05 s⁻¹
11          C61G A64U U65A C68U  self-cleavage kobs at 160 uM GlcN6P         < 1e-05 s⁻¹
12                    G41C U49G  self-cleavage kobs at 160 uM GlcN6P         < 1e-05 s⁻¹
13                    G60A C61A  self-cleavage kobs at 160 uM GlcN6P         < 1e-05 s⁻¹
14                    A12U A33C  self-cleavage kobs at 160 uM GlcN6P        2.87e-05 s⁻¹
15                    U45G C71U  self-cleavage kobs at 160 uM GlcN6P        0.000517 s⁻¹
16                    A12U U57A  self-cleavage kobs at 160 uM GlcN6P        4.56e-05 s⁻¹
17                     G7A A48C  self-cleavage kobs at 160 uM GlcN6P         < 1e-05 s⁻¹
18                    G44U U47C  self-cleavage kobs at 160 uM GlcN6P         < 1e-05 s⁻¹
19                     A6U U30A  self-cleavage kobs at 160 uM GlcN6P         < 1e-05 s⁻¹
20                    G62C C70U  self-cleavage kobs at 160 uM GlcN6P         < 1e-05 s⁻¹
21                    G41C C67G  self-cleavage kobs at 160 uM GlcN6P         < 1e-05 s⁻¹
22                    A64G G66A  self-cleavage kobs at 160 uM GlcN6P         0.00197 s⁻¹
